Task for the reader: assign each of the following compounds its reported normalized growth.
# assay procedure: chemical genetic growth profiling, strain panel (AID 1159580);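 also: tested at 20 µM; growth read once vehicle control cultures reached saturation at 30 °C; 1 = growth at the plate median or of vehicle wells; lower values mean less growth of the strain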
# setup conditions: S. cerevisiae deletion strains, growth OD, locus YKL068W, stronger effect = lower value
Out of some 5,500 compounds screened, about 2,000 (36%) were called active. Roughly 18% stayed inconclusive and do not appear here. The list shows a part of the results.
Form: value (number only, do not type unit).

QUERY: Give reported normalized growth value for O=C(O)/C=C/c1ccc(O)c(O)c1
RESULT: 1.01

QUERY: Give reported normalized growth value for c1ccc2c(c1)sc1ccccc12
RESULT: 0.973

QUERY: Give reported normalized growth value for CC(C)NCC(O)COc1cccc2[nH]ccc12 (stereo unspecified)
RESULT: 0.984

QUERY: Give reported normalized growth value for N[C@@H](Cc1ccc(N(CCCl)CCCl)cc1)C(=O)O
RESULT: 0.971

QUERY: Give reported normalized growth value for CCCCCCC(C)OC(=O)COc1cc(Cl)c(Cl)cc1Cl (stereo unspecified)
RESULT: 0.989

QUERY: Give reported normalized growth value for O=C(O)CCCc1ccc(N(CCCl)CCCl)cc1
RESULT: 0.973

QUERY: Give reported normalized growth value for NCCc1cnc[nH]1
RESULT: 1.01

QUERY: Give reported normalized growth value for NCCC(O)C(=O)NC1CC(N)C(OC2OC(CN)C(O)C(O)C2N)C(OC2OC(CO)C(O)C2O)C1O (stereo unspecified)
RESULT: 0.987

QUERY: Give reported normalized growth value for CC(=O)O[C@H]1C[C@@H](OC(C)=O)C(C)(C)C2CC(=O)[C@]3(C)C(CC[C@@]4(C)[C@H](C(=O)O)OC(=O)C5OC543)[C@]21C (stereo partly specified)
RESULT: 0.988

QUERY: Give reported normalized growth value for Oc1ccc2c(c1)O[C@H](c1ccc(O)c(O)c1)[C@@H](O)C2
RESULT: 0.988

QUERY: Give reported normalized growth value for CN1C2CCC1CC(OC(c1ccccc1)c1ccccc1)C2 (stereo unspecified)
RESULT: 0.986
